Target: T1, ST2 on the effector cells (KU812, KU812/NF-κB-1#, HUVEC, HMC-1) (human, UniProt Q01638 19-556)
T1 sequence (looked up): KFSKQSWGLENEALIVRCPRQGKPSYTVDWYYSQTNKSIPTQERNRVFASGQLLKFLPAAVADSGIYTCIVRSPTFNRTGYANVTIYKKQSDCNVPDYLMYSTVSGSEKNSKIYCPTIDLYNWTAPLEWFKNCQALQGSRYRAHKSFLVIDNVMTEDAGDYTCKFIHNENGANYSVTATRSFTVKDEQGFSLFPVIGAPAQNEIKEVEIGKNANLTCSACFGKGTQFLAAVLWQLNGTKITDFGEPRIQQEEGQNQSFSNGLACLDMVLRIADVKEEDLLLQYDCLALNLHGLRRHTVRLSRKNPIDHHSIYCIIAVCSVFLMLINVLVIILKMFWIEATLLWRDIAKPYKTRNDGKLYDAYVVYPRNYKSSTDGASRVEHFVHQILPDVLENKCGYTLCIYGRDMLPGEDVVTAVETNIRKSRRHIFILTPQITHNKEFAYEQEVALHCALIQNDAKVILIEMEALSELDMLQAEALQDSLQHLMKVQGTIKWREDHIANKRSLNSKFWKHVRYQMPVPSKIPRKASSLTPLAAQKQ
Assay: cell-based or functional assay
Quantity Measured: IC50, inhibition of activation of KU812-NF-κB reporter gene by IL33 (µg/mL)
Report the figure in µg/mL without appending any unit label.

Worked examples, 3 binders total:
binder="5888-153-H3L1 (antibody, human IgG4 S228P, kappa, V domains shown, Humanized antibody) VH: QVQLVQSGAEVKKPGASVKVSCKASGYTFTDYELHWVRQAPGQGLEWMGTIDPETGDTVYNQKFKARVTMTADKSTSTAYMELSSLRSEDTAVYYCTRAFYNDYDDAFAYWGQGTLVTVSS VL: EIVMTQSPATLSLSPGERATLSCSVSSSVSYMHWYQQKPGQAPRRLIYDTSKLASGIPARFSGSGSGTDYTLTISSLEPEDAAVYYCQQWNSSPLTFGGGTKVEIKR" test_value=0.0394
binder="5888-153-H3L2 (antibody, human IgG4 S228P, kappa, V domains shown, Humanized antibody) VH: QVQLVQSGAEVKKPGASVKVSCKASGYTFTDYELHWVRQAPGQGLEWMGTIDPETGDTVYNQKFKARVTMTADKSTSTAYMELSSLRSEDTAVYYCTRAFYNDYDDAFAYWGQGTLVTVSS VL: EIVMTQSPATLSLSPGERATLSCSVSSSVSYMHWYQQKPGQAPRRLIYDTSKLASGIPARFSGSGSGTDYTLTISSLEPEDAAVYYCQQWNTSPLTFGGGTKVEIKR" test_value=0.0553
binder="5888-153-H0L1 (antibody, human IgG4 S228P, kappa, V domains shown, Humanized antibody) VH: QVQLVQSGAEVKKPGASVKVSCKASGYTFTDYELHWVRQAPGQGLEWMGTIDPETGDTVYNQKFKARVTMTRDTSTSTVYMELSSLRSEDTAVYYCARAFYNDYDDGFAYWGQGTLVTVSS VL: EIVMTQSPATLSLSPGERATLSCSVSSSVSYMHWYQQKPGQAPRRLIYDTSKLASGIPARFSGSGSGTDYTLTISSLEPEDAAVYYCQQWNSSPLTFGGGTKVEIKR" test_value=0.0438

Next, consider the following binder.
May I ask what IC50, inhibition of activation of KU812-NF-κB reporter gene by IL33 has been recorded for 5888-153-H1L1 (antibody, human IgG4 S228P, kappa, V domains shown) VH: QVQLVQSGAEVKKPGASVKVSCKASGYTFTDYELHWVRQAPGQGLEWMGTIDPETGDTVYNQKFKARVTMTADKSTSTAYMELSSLRSEDTAVYYCTRAFYNDYDDGFAYWGQGTLVTVSS VL: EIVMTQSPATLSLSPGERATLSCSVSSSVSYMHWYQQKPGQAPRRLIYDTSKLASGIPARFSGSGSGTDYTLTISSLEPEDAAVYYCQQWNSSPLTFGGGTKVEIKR ?
0.0124

From: patent US12624112
